The following compounds are shown together with reported AUC(0-24 hr) Conjugate values.
# assay_procedure: Single intravenous dose pharmacokinetic study
# assay_context: intact conjugate; male ICR mice, 5 mg/kg intravenous
parameter_measured: AUC(0-24 hr) Conjugate (ng·h/mL)

compound	parameter_measured	assay_value
CCCCCC(=O)Nc1cccc(CN(Cc2cc(CN(Cc3ccccn3)Cc3cccc(NC(=O)CCCCC)n3)cc(OCCCCNC(=O)COCCOCCOCC(=O)NCc3ccc(CNC(=O)CCSSCCC(=O)N(C)[C@@H](C)C(=O)O[C@H]4CC(=O)N(C)c5cc(cc(OC)c5Cl)C/C(C)=C/C=C\[C@@H](OC)[C@@]5(O)C[C@H](OC(=O)N5)[C@@H](C)[C@@H]5O[C@@]45C)cc3)c2)Cc2ccccn2)n1.O=[N+]([O-])[O-].O=[N+]([O-])[O-].O=[N+]([O-])[O-].O=[N+]([O-])[O-].[Zn+2].[Zn+2]	AUC(0-24 hr) Conjugate	14244
CCCCCC(=O)Nc1cccc(CN(Cc2cc(CN(Cc3ccccn3)Cc3cccc(NC(=O)CCCCC)n3)cc(OCCCCN(Cc3ccc(-c4ccccc4)cc3)C(=O)COCCOCCOCC(=O)NCc3ccc(CNC(=O)CCC(C)(C)SSCCC(=O)N(C)[C@@H](C)C(=O)O[C@H]4CC(=O)N(C)c5cc(cc(OC)c5Cl)C/C(C)=C/C=C\[C@@H](OC)[C@@]5(O)C[C@H](OC(=O)N5)[C@@H](C)[C@@H]5O[C@@]45C)cc3)c2)Cc2ccccn2)n1.O=[N+]([O-])[O-].O=[N+]([O-])[O-].O=[N+]([O-])[O-].O=[N+]([O-])[O-].[Zn+2].[Zn+2] [Compound 40b]	AUC(0-24 hr) Conjugate	88387
CCCCCC(=O)Nc1cccc(CN(Cc2cc(CN(Cc3ccccn3)Cc3cccc(NC(=O)CCCCC)n3)cc(OCCCCN(Cc3ccc(C(=O)NCCOCCOCCNC(=O)CCSSC(C)(C)CCC(=O)N(C)C(C)C(=O)OC4CC(=O)N(C)c5cc(cc(OC)c5Cl)CC(C)=CC=CC(OC)C5(O)CC(OC(=O)N5)C(C)C5OC45C)cc3)C(=O)C3(c4ccc(Cl)cc4)CCCCC3)c2)Cc2ccccn2)n1.O=[N+]([O-])[O-].O=[N+]([O-])[O-].O=[N+]([O-])[O-].O=[N+]([O-])[O-].[Zn+2].[Zn+2] (stereo not shown)	AUC(0-24 hr) Conjugate	84916

* * *

# assay_procedure: Single intravenous dose pharmacokinetic study
# assay_context: male ICR mice, 5 mg/kg intravenous, n = 3
# Experimental: Six-week-old male ICR mice, from the Biolasco Taiwan, were divided into groups of three and dosed at 5 mg/kg intravenously. Blood samples were drawn from each animal at time points of 0.003, 0.083, 0.25, 0.5, 1, 2, 4, 6, 8, and 24 h and stored on ice (0–4 °C). […] Plasma samples were analyzed by liquid chromatography tandem mass spectrometry (LC/MS/MS). […]
parameter_measured: CL (mL/min/kg)

compound	parameter_measured	assay_value
COc1cc2cc(c1Cl)N(C)C(=O)C[C@H](OC(=O)[C@H](C)N(C)C(=O)CCSSc1ccc(C(=O)NCCCCOc3cc(CN(Cc4ccccn4)Cc4ccccn4)cc(CN(Cc4ccccn4)Cc4ccccn4)c3)cc1)[C@]1(C)O[C@H]1[C@H](C)[C@@H]1C[C@@](O)(NC(=O)O1)[C@H](OC)/C=C\C=C(/C)C2.O=[N+]([O-])[O-].O=[N+]([O-])[O-].O=[N+]([O-])[O-].O=[N+]([O-])[O-].[Zn+2].[Zn+2] [Compound 27b]	CL	294

* * *

# assay_procedure: Single intravenous dose pharmacokinetic study
# assay_context: male ICR mice, 5 mg/kg intravenous, n = 3
The following molecules are shown together with reported CL values.

molecule	CL [mL/min/kg]
CCCCCC(=O)Nc1cccc(CN(Cc2cc(CN(Cc3ccccn3)Cc3cccc(NC(=O)CCCCC)n3)cc(OCCCCN(Cc3ccc(-c4ccccc4)cc3)C(=O)COCCOCCOCC(=O)NCc3ccc(CNC(=O)CCSSCCC(=O)N(C)[C@@H](C)C(=O)O[C@H]4CC(=O)N(C)c5cc(cc(OC)c5Cl)C/C(C)=C/C=C\[C@@H](OC)[C@@]5(O)C[C@H](OC(=O)N5)[C@@H](C)[C@@H]5O[C@@]45C)cc3)c2)Cc2ccccn2)n1.O=[N+]([O-])[O-].O=[N+]([O-])[O-].O=[N+]([O-])[O-].O=[N+]([O-])[O-].[Zn+2].[Zn+2] [Compound 40a]	0.9
CCCCCC(=O)Nc1cccc(CN(Cc2cc(CN(Cc3ccccn3)Cc3cccc(NC(=O)CCCCC)n3)cc(OCCCCN(Cc3ccc(-c4ccccc4)cc3)C(=O)COCCOCCOCC(=O)NCc3ccc(CNC(=O)CCC(C)(C)SSCCC(=O)N(C)[C@@H](C)C(=O)O[C@H]4CC(=O)N(C)c5cc(cc(OC)c5Cl)C/C(C)=C/C=C\[C@@H](OC)[C@@]5(O)C[C@H](OC(=O)N5)[C@@H](C)[C@@H]5O[C@@]45C)cc3)c2)Cc2ccccn2)n1.O=[N+]([O-])[O-].O=[N+]([O-])[O-].O=[N+]([O-])[O-].O=[N+]([O-])[O-].[Zn+2].[Zn+2] [Compound 40b]	1.0

* * *

# assay_procedure: Single intravenous dose pharmacokinetic study
# assay_context: male ICR mice, 5 mg/kg intravenous, n = 3
# Protocol: Six-week-old male ICR mice, from the Biolasco Taiwan, were divided into groups of three and dosed at 5 mg/kg intravenously. Blood samples were drawn from each animal at time points of 0.003, 0.083, 0.25, 0.5, 1, 2, 4, 6, 8, and 24 h and stored on ice (0–4 °C). […] Plasma samples were analyzed by liquid chromatography tandem mass spectrometry (LC/MS/MS). […]

molecule	units_symbol	CL
COc1cc2cc(c1Cl)N(C)C(=O)CC(OC(=O)C(C)N(C)C(=O)CCSSCCC(=O)NCCCCOc1cc(CN(Cc3ccccn3)Cc3ccccn3)cc(CN(Cc3ccccn3)Cc3ccccn3)c1)C1(C)OC1C(C)C1CC(O)(NC(=O)O1)C(OC)C=CC=C(C)C2.O=[N+]([O-])[O-].O=[N+]([O-])[O-].O=[N+]([O-])[O-].O=[N+]([O-])[O-].[Zn+2].[Zn+2] (centres unmarked) [Compound 27a]	mL/min/kg	11.5
CCCCCC(=O)Nc1cccc(CN(Cc2cc(CN(Cc3ccccn3)Cc3cccc(NC(=O)CCCCC)n3)cc(OCCCCNC(=O)CCSSCCC(=O)N(C)[C@@H](C)C(=O)O[C@H]3CC(=O)N(C)c4cc(cc(OC)c4Cl)C/C(C)=C/C=C\[C@@H](OC)[C@@]4(O)C[C@H](OC(=O)N4)[C@@H](C)[C@@H]4O[C@@]34C)c2)Cc2ccccn2)n1.O=[N+]([O-])[O-].O=[N+]([O-])[O-].O=[N+]([O-])[O-].O=[N+]([O-])[O-].[Zn+2].[Zn+2]	mL/min/kg	6.8

* * *

The following compounds are shown together with reported AUC(0-24 hr) Conjugate values.
# assay_procedure: Single intravenous dose pharmacokinetic study
# assay_context: intact conjugate; male ICR mice, 5 mg/kg intravenous
parameter_measured: AUC(0-24 hr) Conjugate (ng·h/mL)

compound	assay_value
COc1cc2cc(c1Cl)N(C)C(=O)CC(OC(=O)C(C)N(C)C(=O)CCSSCCC(=O)NCCCCOc1cc(CN(Cc3ccccn3)Cc3ccccn3)cc(CN(Cc3ccccn3)Cc3ccccn3)c1)C1(C)OC1C(C)C1CC(O)(NC(=O)O1)C(OC)C=CC=C(C)C2.O=[N+]([O-])[O-].O=[N+]([O-])[O-].O=[N+]([O-])[O-].O=[N+]([O-])[O-].[Zn+2].[Zn+2] (stereo not drawn) [Compound 27a]	7051
CCCCCC(=O)Nc1cccc(CN(Cc2cc(CN(Cc3ccccn3)Cc3cccc(NC(=O)CCCCC)n3)cc(OCCCCNC(=O)CCSSCCC(=O)N(C)[C@@H](C)C(=O)O[C@H]3CC(=O)N(C)c4cc(cc(OC)c4Cl)C/C(C)=C/C=C\[C@@H](OC)[C@@]4(O)C[C@H](OC(=O)N4)[C@@H](C)[C@@H]4O[C@@]34C)c2)Cc2ccccn2)n1.O=[N+]([O-])[O-].O=[N+]([O-])[O-].O=[N+]([O-])[O-].O=[N+]([O-])[O-].[Zn+2].[Zn+2] [Compound 33]	14379
COc1cc2cc(c1Cl)N(C)C(=O)C[C@H](OC(=O)[C@H](C)N(C)C(=O)CCSSc1ccc(C(=O)NCCCCOc3cc(CN(Cc4ccccn4)Cc4ccccn4)cc(CN(Cc4ccccn4)Cc4ccccn4)c3)cc1)[C@]1(C)O[C@H]1[C@H](C)[C@@H]1C[C@@](O)(NC(=O)O1)[C@H](OC)/C=C\C=C(/C)C2.O=[N+]([O-])[O-].O=[N+]([O-])[O-].O=[N+]([O-])[O-].O=[N+]([O-])[O-].[Zn+2].[Zn+2] [Compound 27b]	318
